Tested on: SNB-75 CNS
experiment: NCI tumour cell line growth inhibition, 48 h
Items are presented alongside their recorded TGI.

Solved cases below.
CCCCS/C(=C(/C#N)C(N)=O)c1cc2c([nH]1)CCCC2	29.1 µM
COc1ccc(N)c(C(=O)CCNC(C)=O)c1	> 100 µM
O=Cc1cn(Cc2ccccc2)c2ccccc12	> 100 µM
CC1(O)C(C)(O)C(C)(O)C1(C)O (stereo not drawn)	> 100 µM
Cc1ncc([N+](=O)[O-])n1CCNC(=O)CCC(=O)NCCCn1ccnc1[N+](=O)[O-]	> 100 µM

Form entry - test system: SNB-75 CNS; read-out: TGI; compound: "CN(C)CCNc1ccc2nnn3c4ccc(O)cc4c(=O)c1c23"
32.1 µM

Moving on to the next compound: CC(CO)CCNc1ncnc2c1ncn2CCC(=O)O (stereo not drawn)
> 100 µM

Moving on to the next compound: "COc1ccc(CNc2cnc3ccc(N)cc3n2)cc1OC"
> 100 µM

----------
System: SW-620 colon
experiment: NCI tumour cell line growth inhibition, 48 h; in the data active = GI50 below about 0.43 µM; inactive = the rest
Reply using exactly one outcome from active, inactive

These solved cases illustrate the format of a correct answer.
CCCCCCC(O)(c1ccc(F)cc1)C(CN1CCOCC1)c1ccccc1 (centres undefined)	inactive
COc1cc(-c2cc(-c3nc4ccc(F)cc4[nH]3)[nH]n2)cc(OC)c1OC	inactive
CC(=O)/C(=C\c1c(-c2ccccc2)[nH]c2ccccc12)S(C)(=O)=O	inactive
COc1ccc(CCc2nc3cc(-c4c(C)noc4C)ccc3n2CCN2CCOCC2)cc1	inactive
CC[O-].CC[O-].CN(C)c1ccc([O-])cc1.CN(C)c1ccc([O-])cc1.[Ti+4]	inactive

So what was the verdict on "C#CCNCCCN1C(=O)c2ccc3c4c(ccc(c24)C1=O)C(=O)N(CCCNCC#C)C3=O" in this test?
active

Moving on to the next compound: "O=S(=O)(Nc1ccc2ccccc2c1)N1CCCCC1"
inactive

Moving on to the next compound: COC(=O)c1ccc(C2SC(C)C(=O)N2NC(=O)C(O)c2ccccc2)cc1 (centres undefined)
inactive

Moving on to the next compound: "O=C(Nc1ccccc1C(=O)N/N=C(\c1ccccc1)c1ccccn1)c1ccccc1"
inactive

----------
System: MDA-MB-435
experiment: NCI tumour cell line growth inhibition, 48 h
property: TGI

Need TGI of "CCCCCCCCCCCCCCCC(=O)Nc1ccn([C@@H]2O[C@H](CO)[C@@H](O)[C@@H]2C#N)c(=O)n1" , thanks.
> 100 µM

Moving on to the next compound: "CN/N=C(/C=C/c1ccccc1)C(C)C"
> 100 µM

Moving on to the next compound: "CCCCCCCC/C(=C\C1=C(C)C(=O)C(OC)=C(OC)C1=O)C(=O)O"
37 µM

Moving on to the next compound: "CC(C)NC1(C(N)=O)CCN(Cc2ccccc2)CC1"
> 100 µM

Moving on to the next compound: CC(=O)OC1COC(n2nc(N)nc2C)C(OC(C)=O)C1OC(C)=O (stereo unspecified)
> 100 µM

Moving on to the next compound: Cc1ccc(S(=O)(=O)C2=C([Si](C)(C)C)C3CC2[C@@H]2C4C=CC(CC4)[C@H]32)cc1 (stereo partly specified)
> 100 µM

----------
System: UACC-257 melanoma
experiment: NCI tumour cell line growth inhibition, 48 h
property: GI50

CC(C)(C(=O)NCC(F)(F)C(F)(F)F)C(=O)N[C@@H]1C(=O)Nc2ccccc2-c2ccccc21	47.3 µM
Cc1cccc(-n2cnc3cc(C(=O)N4CCCCC4)ccc32)c1	> 100 µM
C=C(C)[C@@H]1CC[C@]2(C(N)=O)CC[C@]3(C)[C@H](CC[C@@H]4[C@@]5(C)C/C(=C/c6cccnc6)C(=O)C(C)(C)[C@@H]5CC[C@]43C)[C@@H]12	7.2 µM

Need GI50 of "COc1cc(-c2cc(-c3nc4ccc(F)cc4[nH]3)[nH]n2)cc(OC)c1OC" , thanks.
2.15 µM
